# test_system: Chk1 (Homo sapiens, UniProt O14757)
# Construct: purchased Upstate Biotechnology
# Sequence (O14757 whole entry): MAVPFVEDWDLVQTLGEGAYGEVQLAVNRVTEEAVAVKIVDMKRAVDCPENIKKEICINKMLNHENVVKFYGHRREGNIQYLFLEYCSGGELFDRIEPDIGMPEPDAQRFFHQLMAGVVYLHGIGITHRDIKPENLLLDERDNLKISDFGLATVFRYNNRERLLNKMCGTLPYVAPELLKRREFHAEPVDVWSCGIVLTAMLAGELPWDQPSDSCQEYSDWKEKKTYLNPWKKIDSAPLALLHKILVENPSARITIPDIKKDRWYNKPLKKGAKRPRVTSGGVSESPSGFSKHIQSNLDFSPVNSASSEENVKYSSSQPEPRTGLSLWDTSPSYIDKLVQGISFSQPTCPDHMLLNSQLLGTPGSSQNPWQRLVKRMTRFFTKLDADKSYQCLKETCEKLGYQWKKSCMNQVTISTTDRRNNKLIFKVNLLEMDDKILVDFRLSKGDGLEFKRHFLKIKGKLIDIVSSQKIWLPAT
# assay_info: Chk1 kinase assay: incorporation of γ-33P ATP into immobilized myelin basic protein
# Format: biochemical
# run_parameters: Table 11; Chk1 only; read-out: Chk1 IC50
IC50 values by entry

Here is how some compounds turned out for IC50.
1. Nc1ncc(-c2cccc(CO)c2)nc1-c1nnc(Cc2ccccc2)[nH]1 ... 1000 to 10000 nM
2. Nc1ncc(-c2cccc(C(=O)N[C@H]3CCc4ccccc43)c2)nc1C(=O)N[C@H]1CCN(C(=O)c2ccco2)C1 ... 1000 to 10000 nM
3. CNC(=O)c1nc(-c2ccc3ccccc3c2)cnc1N ... 50 to 1000 nM
4. N=C(NNc1ccccn1)c1nc(-c2cccc(C(=O)NCc3ccccc3)c2)cnc1N ... ≥ 10000 nM
5. CNC(=O)c1nc(-c2cc(F)cc(C(=O)N[C@H]3CCc4ccccc43)c2)cnc1N ... 50 to 1000 nM
6. Cc1nc(-c2nc(-c3cccc(C(=O)N[C@H]4CCc5ccccc54)c3)cnc2N)nn1C ... ≥ 10000 nM

Param item = `CC(C)(C)OC(=O)N1CC[C@H](NC(=O)c2nc(-c3cccc(C(=O)N[C@H]4CCc5ccccc54)c3)cnc2N)C1` ; retrieve measured IC50.
≥ 10000 nM

Continue with `Nc1ncc(-c2cccc(CN[C@H]3CCc4ccccc43)c2)nc1C(=O)NC1CC1`
50 to 1000 nM

Can you check `CC(C)(C)c1nnc(-c2nc(-c3cccc(CN[C@H]4CCc5ccccc54)c3)cnc2N)[nH]1` next?
50 to 1000 nM

Next record, please: COC(=O)c1nc(-c2cccc(CNC3CCc4c(F)ccc(F)c43)c2)cnc1N (centres unmarked)
50 to 1000 nM

Subsequent entry: `CC(C)(C)OC(=O)N1CC[C@H](NC(=O)c2nc(-c3cccc(C(=O)NCc4c(F)cccc4Cl)c3)cnc2N)C1`
1000 to 10000 nM

Next compound: CNC(=O)c1cc(-c2cccc(CNC3CCc4ccc(Br)cc43)c2)cnc1N (centres unmarked)
50 to 1000 nM

// same read-out, input: `N=C(NNc1ccncc1)c1nc(-c2cccc(C(=O)N[C@@H]3CCc4ccccc43)c2)cnc1N`
1000 to 10000 nM

Query `CSc1ccc(CNC(=O)c2cccc(-c3cnc(N)c(C(=O)N[C@H]4CCN(C(=O)OC(C)(C)C)C4)n3)c2)cc1` next
1000 to 10000 nM

Now the compound COC(=O)C1CCCN(C(=O)c2nc(-c3cccc(C(=O)NCc4ccccc4)c3)cnc2N)C1 (centres unmarked)
≥ 10000 nM

Also check `Nc1ncc(-c2cccc(C(=O)NCc3ccccc3)c2)nc1C(=O)NCCNS(=O)(=O)c1cccc2cccnc12`
≥ 10000 nM

What about this compound? `N=C(N)N/N=C/c1nc(-c2cccc(C(=O)NCc3ccccc3)c2)cnc1N`
≥ 10000 nM

Next up: Nc1ncc(-c2cccc(S(=O)(=O)N[C@H]3CCc4ccccc43)c2)nc1C(=O)NC1CCCNC1 (some centres unmarked)
50 to 1000 nM

Lookup `Nc1ncc(-c2cccc(C(=O)NCc3ccccc3)c2)nc1C(=O)NCC(=O)O`
≥ 10000 nM

Would you mind doing `CC(C)(C)OC(=O)NCCNC(=O)c1nc(-c2cccc(C(=O)NCc3ccccc3)c2)cnc1N` as well?
≥ 10000 nM

# repeat for `Nc1ncc(-c2cccc(C(=O)NCc3ccc(Cl)cc3)c2)nc1C(=O)N[C@H]1CCNC1`
< 50 nM

Can you check CNC(=O)c1nc(-c2cccc(CNC3CCc4cc(-c5ccc(C)cc5)ccc43)c2)cnc1N (centres unmarked) next?
50 to 1000 nM
